Provenance of the data: patent US4256753A

# assay_details: Gastrointestinal ulcerogenicity in fasted rats
# experimental_setup: rat, in vivo, po
experimental_endpoint: TD50 (mg/kg)
State the answer as a number, implicitly in mg/kg.

Q: Name the recorded TD50 of the item CC(C)Cc1ccc(C(C)C(=O)O)cc1 (centres unmarked) [Compound 1, 2-(4-isobutylphenyl)propionic acid, reference compound] in your answer.
Ans: 125

====

# assay_details: in vivo
# experimental_setup: mouse, po
experimental_endpoint: LD50 at 168 h (mg/kg)
State the answer as a number, implicitly in mg/kg.

Q: Name the recorded LD50 at 168 h of the item CC(C(=O)O)c1ccc(Nc2ccccn2)cc1 (stereo not shown) in your answer.
Ans: 1910

====

# assay_details: Gastrointestinal ulcerogenicity in fasted rats
# experimental_setup: rat, in vivo, po; rats, p.o.; UD50 divided by ED50 of CAR method; read-out: Safety index, ratio of UD50/ED50 (CAR method)
experimental_endpoint: selectivity ratio

Q: Name the recorded selectivity ratio of the item CC(C(=O)O)c1ccc(Nc2ccccn2)cc1 (stereo not shown) [Compound A] in your answer.
Ans: > 64
